# Tested on: TRPC4 beta (transient receptor potential cation channel C4), mouse
# EXPERIMENT NOTES: potentiation of DAMGO EC20 TRPC4 response – cell-based, Fluo-4, HEK293 TRPC4beta/mu-opioid, confirmation (AID 2555)
# TEST PARAMETERS: DAMGO EC20, Fluo-4 calcium flux, at 10 µM; active compounds read high
Active and inactive are the calls of the source.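 How the source made its calls: active means primary screen hit whose calcium fluorescence ratio, in both repeats, exceeds the weak agonist control mean by 3 SD; inactive means the rest.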
REPORTED ENDPOINT: potentiation

CCN1CCN(c2c(Cl)cccc2NC(=O)c2ccc([N+](=O)[O-])cc2)CC1; inactive
O=C(NC(=S)NNC(=O)c1cccs1)c1ccc(Br)o1; inactive
CCCNC(=O)c1nnsc1S(=O)c1ccc(Cl)cc1 (stereo not drawn); inactive

====

# EXPERIMENT NOTES: serotonin-gated TRPC4 signal block – cell-based, second counter screen, HEK293 TRPC4/5HT1a, Fluo-4, counter-screen for TRPC4 inhibitor project, confirmation (AID 434978)
# TEST PARAMETERS: Fluo-4 calcium flux, at 10 µM, serotonin added to trigger calcium flux; active compounds read high
Activity calls are given as the source filed them.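 How the source made its calls: active means primary screen active whose calcium signal fell more than 3 SD beyond the full-serotonin control mean in both duplicate plates; inactive means the rest.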
REPORTED ENDPOINT: inhibition

Some solved cases for reference:
CNCC(=O)N1CCN(c2ncc(C(F)(F)F)cc2Cl)CC1; inactive
CN1CCCCc2c1nc1ccccc1c2N (tested in a mixture with another compound); 12.4% (active)
O=C(Nc1cnn(C23CC4CC(CC(C4)C2)C3)c1)c1cnn2cccnc12; inactive
COc1ccc(Nc2cc(C)nc3ccccc23)cc1; 28.9% (active)

Can you give me inhibition for all of these, one by one?
1. O=C(O)c1ccc(-c2ccc(/C=N/Nc3ccc([N+](=O)[O-])cc3)o2)cc1
2. Cn1c(N2CCN(C(=O)Nc3ccc(F)cc3)CC2)nc2ccccc21
3. CCC(=O)N1CCc2cc(Br)cc(S(=O)(=O)NCCCN(CC)Cc3ccccc3)c21
4. COc1ccccc1CCc1nnc(CCC(=O)NCCCOc2cccnc2)o1
5. CC12CCC(C/C1=N/OC(=O)c1cccc([N+](=O)[O-])c1)C2(C)C (centres undefined)
6. CCN1CCN(c2ccc(S(=O)(=O)N3CCCCC3)cc2NC(=O)c2cc3ccccc3o2)CC1
7. CCOC(=O)c1cc(C#N)c(N2CCCCC2)nc1-c1ccccc1

stdout:
inactive
inactive
inactive
inactive
28.3% (active)
inactive
inactive

====

# TEST TARGET: Potassium voltage-gated channel subfamily KQT member 2 (Rattus norvegicus) (UniProt O88943)
# Sequence (O88943 whole entry, looked up): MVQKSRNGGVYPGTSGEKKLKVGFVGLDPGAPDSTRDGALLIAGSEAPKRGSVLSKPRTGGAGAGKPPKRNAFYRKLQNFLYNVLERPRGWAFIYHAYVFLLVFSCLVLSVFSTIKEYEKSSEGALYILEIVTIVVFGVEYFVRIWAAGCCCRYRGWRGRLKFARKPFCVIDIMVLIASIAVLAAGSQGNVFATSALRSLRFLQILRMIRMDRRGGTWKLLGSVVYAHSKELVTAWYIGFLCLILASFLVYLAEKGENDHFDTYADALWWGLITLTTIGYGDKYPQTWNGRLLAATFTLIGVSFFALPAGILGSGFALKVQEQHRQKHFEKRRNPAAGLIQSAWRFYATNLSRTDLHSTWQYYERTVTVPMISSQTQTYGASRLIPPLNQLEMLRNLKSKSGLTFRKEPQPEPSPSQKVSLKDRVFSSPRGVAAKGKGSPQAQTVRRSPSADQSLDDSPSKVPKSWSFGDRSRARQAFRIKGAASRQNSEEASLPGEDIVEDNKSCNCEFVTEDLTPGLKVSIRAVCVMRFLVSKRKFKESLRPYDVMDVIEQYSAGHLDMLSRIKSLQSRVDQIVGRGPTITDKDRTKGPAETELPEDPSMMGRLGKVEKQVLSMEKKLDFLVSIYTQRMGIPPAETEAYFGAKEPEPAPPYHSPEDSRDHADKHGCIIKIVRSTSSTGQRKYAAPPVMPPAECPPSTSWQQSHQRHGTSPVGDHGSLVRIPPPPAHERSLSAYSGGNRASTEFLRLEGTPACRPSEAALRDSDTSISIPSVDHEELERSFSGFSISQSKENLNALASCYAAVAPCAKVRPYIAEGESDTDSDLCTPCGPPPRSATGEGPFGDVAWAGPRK
# EXPERIMENT NOTES: KCNQ2 thallium flux enhancement – KCNQ2-CHO-K1 cells, selectivity assay for KCNQ1 potentiator project (AID 493009);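 further: assay conditions were tuned for KCNQ1 rather than KCNQ2 modulators; signal is max minus min fluorescence divided by baseline after thallium stimulus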
# TEST PARAMETERS: FluxOR thallium flux fluorescence, at 10 µM, scaled: buffer 0, activator control 100
Calls of active or inactive are those of the source.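 Rule for the calls: active = mean duplicate potentiation above the buffer control mean plus 5 SD of buffer wells; inactive = the rest.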
Result category, one only: Yes for active, No for inactive

Cc1ccc(/C=C/C(=O)c2ccc(O)cc2)cc1; No
CC(C1CC2CCC1C2)n1c(-c2cccs2)n[nH]c1=S (stereo unspecified); Yes
Cc1cccc(/C=N/NC(=O)c2cc(Br)ccc2O)n1; Yes
CN(C)CCCN(C(=O)CCc1ccccc1)c1nc2ccc(F)cc2s1; No
COc1cc(NC(=O)CSc2ncnc3sc4c(c23)CCC(C)C4)c(C(=O)O)cc1OC (stereo unspecified); Yes

We next turn to a different compound, shown below.
stdin: # lookup: test call for CC(C)NS(=O)(=O)c1ccc(NC(=O)C(C)Oc2ccc(C(=O)c3ccccc3)cc2)cc1 (stereo unspecified)
stdout: No
